Every entry's value here was drawn from patent US11827624B2.

Experiment: Aqueous CIR stability test (LC-MS hydrolytic stability in PBS)
Assay type: physicochemical
Conditions: PBS with 1% DMSO; ≈10 μM in 1% DMSO/PBS, room temperature; read-out: t1/2 (hydrolytic stability, intact CIR) (converted)
VALUE KIND: half-life

Query O=C(O)CC[C@H](NC(=O)N[C@@H](CCCCNC(=O)NCCOCCOCCOCCOCCOCCOCCOCCOC(=O)n1cnc(CCNC(=O)CNc2ccc([N+](=O)[O-])cc2[N+](=O)[O-])c1)C(=O)O)C(=O)O yields half-life of ~12 h

====

Target: monoclonal human anti-DNP antibody (mAb)
Assay: BLI covalent labeling kinetics assay on IgG Fc capture probes, mAb
Settings: mAb; read-out: Kl ^c
VALUE KIND: pKi
Numbers only, as −log10 of the molar value.

Query O=C(O)CC[C@H](NC(=O)N[C@@H](CCCCNC(=O)NCCOCCOCCOCCOCCOCCOCCOCCOC(=O)n1cnc(CCNC(=O)CNc2ccc([N+](=O)[O-])cc2[N+](=O)[O-])c1)C(=O)O)C(=O)O [CIR 3] yields pKi of 6.80
